Tested on: HS-PSS
Method: relative IC50 (inflection point of fitted dose-response curve, CellTiter-Glo viability, 72 h; top asymptote may be below 50% inhibition); higher = less potent
Assignment: determine reported relative IC50 for the given molecules.
One number for each entry, in µM.

1. O=c1[nH]c(C2CCCN2)nc2c1oc1ccc(Cl)cc12 (stereo not drawn)
1.5
2. CC(C)C[C@H](NC(=O)[C@H](CCc1ccccc1)NC(=O)CN1CCOCC1)C(=O)N[C@@H](Cc1ccccc1)C(=O)N[C@@H](CC(C)C)C(=O)[C@@]1(C)CO1 [Carfilzomib]
0.0117
3. C1=N/C2=N/c3ccc(OCCN4CCCC4)c(c3)COC/C=C/COCc3cccc(c3)C(=C1)N2 [Pacritinib]
1.18

Query string: Give the measured relative IC50 of `NC[C@@](O)(c1ccc(Cl)cc1)c1ccc(-c2cn[nH]c2)cc1` .
Result string: 2.03
